These measurements were taken from patent US20240408169A1.

Molecular target: CyclinE1/CDK2 (Homo sapiens)
Construct: purchased Eurofins, discovery 14-475
Experiment: Fluorescence Polarization (FP) competitive binding assay, Cyclin E1/Cdk2
Conditions: 10 nM Cyclin E1/Cdk2, 2 nM FAM probe; average of 2-3 independent experiments; read-out: Cyclin E FP IC50
*1 amine or outer side, *2 acyl side, *3 side chain or, on linkers, in order; H or OH if unused. Where a SMILES comes first, the peptide text is derived from it. Bridges are numbered along the chain shown (N, C = ends). [ ]: non-standard residue; d: D form. The star is where a group is joined. X126 = CC(C)C(=O)N1[C@H]2COC[C@@H]1C=C(c1ccc(F)cc1C[C@@H](C(=O)[*:2])N(C)[*:1])C2; NMehhhLys(Me) = CN([C@@H](CCCCCCCN(C)[*:3])C(=O)[*:2])[*:1]; NMe3Pal(2-OiPr,5-Cl) = CN[C@@H](Cc1cc(Cl)cnc1OC(C)C)C(=O)O; X117 = Cc1cc(-c2ccc(F)cc2C[C@@H](C(=O)[*:2])N(C)[*:1])cnn1; NMe(hhhLys) = CN([C@@H](CCCCCCCN[*:3])C(=O)[*:2])[*:1]; X152 = CN([C@@H](Cc1cc(Cl)ccc1OC1CC1)C(=O)[*:2])[*:1]; Cyclobutanecarbonyl(1-CF3) = O=C(C1(C(F)(F)F)CCC1)*; cBuCO(3,3-F2-1-CF3) = O=C(C1(C(F)(F)F)CC(F)(F)C1)*; Pro(trans-4-F) = O=C(O)[C@@H]1C[C@@H](F)CN1; Gly(cPr) = N[C@H](C(=O)O)C1CC1
recorded metric: IC50 (nM)
Give bare numbers, in nM.

CC(C)C[C@@H]1NC(=O)[C@@H](N(C)C(=O)[C@@H](NC(=O)[C@@H]2C[C@@H](F)CN2C(=O)C2(C(F)(F)F)CC(F)(F)C2)C2CC2)CCCCCCCNC(=O)[C@H](Cc2cc(Cl)ccc2OC2CC2)N(C)C1=O [Example 311] ({cBuCO(3,3-F2-1-CF3)}-[Pro(trans-4-F)][Gly(cPr)][NMe(hhhLys)]L[X152]; lactam 3-C); 200

Provide each entry's IC50 from the list below.
1. [2H]C([2H])([2H])n1cc(-c2ccc(Cl)cc2C[C@H]2C(=O)N(C)CCCCCCC[C@H](N(C)C(=O)[C@@H](NC(=O)[C@@H]3C[C@@H](F)CN3C(=O)C3(C(F)(F)F)CC(F)(F)C3)C3CC3)C(=O)N[C@@H](CC(C)C)C(=O)N2C)cn1 [Example 239]
2. CC(C)C[C@@H]1NC(=O)[C@@H](N(C)C(=O)[C@@H](NC(=O)[C@@H]2C[C@@H](F)CN2C(=O)C2(C(F)(F)F)CC(F)(F)C2)C2CC2)CCCCCCCN(C)C(=O)[C@H](Cc2cc(F)ccc2C2=C[C@H]3COC[C@@H](C2)N3C(=O)C(C)C)N(C)C1=O [Example 328] ({cBuCO(3,3-F2-1-CF3)}-[Pro(trans-4-F)][Gly(cPr)][NMehhhLys(Me)]L[X126]; lactam 3-C)
3. Cc1cc(-c2ccc(F)cc2C[C@H]2C(=O)NCCCCCCC[C@H](N(C)C(=O)[C@@H](NC(=O)[C@@H]3C[C@@H](F)CN3C(=O)C3(C(F)(F)F)CC(F)(F)C3)C3CC3)C(=O)N[C@@H](CC(C)C)C(=O)N2C)cnn1 [Example 294] ({cBuCO(3,3-F2-1-CF3)}-[Pro(trans-4-F)][Gly(cPr)][NMe(hhhLys)]L[X117]; lactam 3-C)
4. CC(C)C[C@@H]1NC(=O)[C@@H](N(C)C(=O)[C@@H](NC(=O)[C@@H]2C[C@@H](F)CN2C(=O)C2(C(F)(F)F)CCC2)C2CC2)CCCCCCCNC(=O)[C@H](Cc2cc(Cl)cnc2OC(C)C)N(C)C1=O [Example 138] ({Cyclobutanecarbonyl(1-CF3)}-[Pro(trans-4-F)][Gly(cPr)][NMe(hhhLys)]L[NMe3Pal(2-OiPr,5-Cl)]; lactam 3-C)
5. CC(=O)N1CC=C(c2ccc(F)cc2C[C@H]2C(=O)N(C)CCCCC=CC[C@H](N(C)C(=O)[C@@H](NC(=O)[C@@H]3C[C@@H](F)CN3C(=O)C3(C(F)(F)F)CC(F)(F)C3)C3CC3)C(=O)N[C@@H](CC(C)C)C(=O)N2C)CC1 [Example 39]

1: 420; 2: 210; 3: 1440; 4: 110; 5: 940

# IC50 lookup, item CC(C)C[C@@H]1NC(=O)[C@@H](N(C)C(=O)[C@@H](NC(=O)[C@@H]2C[C@@H](F)CN2C(=O)C2(C(F)(F)F)CC(F)(F)C2)C2CC2)C/C=C\CCCCN(C)C(=O)[C@H](Cc2cc(Cl)cnc2OC2CC2)N(C)C1=O [Example 258]
120

---

Biological target: CyclinE1/CDK2 (Homo sapiens, UniProt P24864)
Construct: purchased Eurofins, discovery 14-475
Experiment: Fluorescence Polarization (FP) competitive binding assay, Cyclin E1/Cdk2;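 further: readings taken after two-hour equilibration at room temperature in HEPES buffer with NaCl, DTT, NP-40 and BSA, IC50 fitted from eight-concentration serial dilution series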
Conditions: 10 nM Cyclin E1/Cdk2, 2 nM FAM probe; average of 2-3 independent experiments; read-out: Cyclin E FP IC50
*1 amine or outer side, *2 acyl side, *3 side chain or, on linkers, in order; H or OH if unused. Where a SMILES comes first, the peptide text is derived from it. Bridges are numbered along the chain shown (N, C = ends). [ ]: non-standard residue; d: D form. The star is where a group is joined. X205 = CC(C)C(=O)N1[C@@H]2COC[C@H]1C=C(c1ccc(F)cc1C[C@@H](C(=O)[*:2])N(C)[*:1])C2; X202 = CN([C@@H](Cc1cc(Cl)ccc1-c1ccc(N2CCN(CC(F)F)CC2)cc1)C(=O)[*:2])[*:1]; X198 = COC[C@H]1COCCN1c1ccc(-c2ccc(Cl)cc2C[C@@H](C(=O)[*:2])N(C)[*:1])cc1; X134 = CN([C@@H](Cc1cc(Cl)ccc1-c1cnc2[nH]c(O)cc2c1)C(=O)[*:2])[*:1]; NMehhhLys(Me) = CN([C@@H](CCCCCCCN(C)[*:3])C(=O)[*:2])[*:1]; cBuCO(3,3-F2-1-CF3) = O=C(C1(C(F)(F)F)CC(F)(F)C1)*; Pro(trans-4-F) = O=C(O)[C@@H]1C[C@@H](F)CN1; Gly(cPr) = N[C@H](C(=O)O)C1CC1
So I've got a bunch of compounds here, and I need their IC50 values.
Numbers only, in nM.

Below, 2 compounds whose answers are already recorded.
CCN1CCCCCCC[C@H](N(C)C(=O)[C@@H](NC(=O)[C@@H]2C[C@@H](F)CN2C(=O)C2(C(F)(F)F)CC(F)(F)C2)C2CC2)C(=O)N[C@@H](CC(C)C)C(=O)N(C)[C@@H](Cc2cc(Cl)ccc2-c2ccc(N3CCOCC3)cc2)C1=O; 1530
CC(C)C[C@@H]1NC(=O)[C@@H](N(C)C(=O)[C@@H](NC(=O)[C@@H]2C[C@@H](F)CN2C(=O)C2(C(F)(F)F)CC(F)(F)C2)C2CC2)CCCC=CCCNC(=O)[C@H](Cc2cc(Cl)ccc2-c2cnn(C3CC3)c2)N(C)C1=O; 1940

Report IC50 for each item below.
1. CC(C)C[C@@H]1NC(=O)[C@@H](N(C)C(=O)[C@@H](NC(=O)[C@@H]2C[C@@H](F)CN2C(=O)C2(C(F)(F)F)CC(F)(F)C2)C2CC2)CCCCCCCN(C)C(=O)[C@H](Cc2cc(F)ccc2C2=C[C@@H]3COC[C@H](C2)N3C(=O)C(C)C)N(C)C1=O [Example 329] ({cBuCO(3,3-F2-1-CF3)}-[Pro(trans-4-F)][Gly(cPr)][NMehhhLys(Me)]L[X205]; lactam 3-C)
2. CC(C)C[C@@H]1NC(=O)[C@@H](N(C)C(=O)[C@@H](NC(=O)[C@@H]2C[C@@H](F)CN2C(=O)C2(C(F)(F)F)CC(F)(F)C2)C2CC2)CCCCCCCN(C)C(=O)[C@H](Cc2cc(Cl)ccc2-c2ccc(N3CCN(CC(F)F)CC3)cc2)N(C)C1=O [Example 352] ({cBuCO(3,3-F2-1-CF3)}-[Pro(trans-4-F)][Gly(cPr)][NMehhhLys(Me)]L[X202]; lactam 3-C)
3. CC(C)C[C@@H]1NC(=O)[C@@H](N(C)C(=O)[C@@H](NC(=O)[C@@H]2C[C@@H](F)CN2C(=O)C2(C(F)(F)F)CC(F)(F)C2)C2CC2)CCCCCCCN(C)C(=O)[C@H](Cc2cc(Cl)ccc2-c2cnc3[nH]c(O)cc3c2)N(C)C1=O [Example 272] ({cBuCO(3,3-F2-1-CF3)}-[Pro(trans-4-F)][Gly(cPr)][NMehhhLys(Me)]L[X134]; lactam 3-C)
4. COC[C@H]1COCCN1c1ccc(-c2ccc(Cl)cc2C[C@H]2C(=O)N(C)CCCCCCC[C@H](N(C)C(=O)[C@@H](NC(=O)[C@@H]3C[C@@H](F)CN3C(=O)C3(C(F)(F)F)CC(F)(F)C3)C3CC3)C(=O)N[C@@H](CC(C)C)C(=O)N2C)cc1 [Example 373] ({cBuCO(3,3-F2-1-CF3)}-[Pro(trans-4-F)][Gly(cPr)][NMehhhLys(Me)]L[X198]; lactam 3-C)

1: 250; 2: 510; 3: 1600; 4: 480
